Reference for the values: patent US20160207996A1

Biological target: human Nav1.7 (full length) (human) (UniProt Q15858)
Assay: cell-based or functional assay
value.type: % inhibition of inward current following P02 voltage protocol, 10 µg/ml (%)
Write the value in % as a bare number.

[in] Can you share its % inhibition of inward current following P02 voltage protocol, 10 µg/ml? I mean this binder: 9A1 (antibody, V domains shown, chimeric llama-human, human IgG1 constant domains) VH: EVQLVQPGAELRNPGASVKVSCKASGDTFTDYYIHWVRQAPGQGLEWMGRIDPEDGGTKYTQKFQGRVTFTADTSTSTVYLELDSLRSEDTAVYYCVGDMDYWGKGTLVTVSS VL: QTVVTQEPSLSVSPGGTVTLTCGLSSGSVTFGNYPSWYQQTPGQAPRTLIYTTNSRHSGVPSRFSGSISGNKATLTISGAQPEDEADFYCALSRVSGTYGTVFGGGTHLTVL
[out] 6.4
